Settings: in isobutanol, 313.15 K
measured-property: solubility (mole fraction)

Find the recorded solubility (mole fraction) belonging to `CCCSc1nc(N[C@@H]2C[C@H]2c2ccc(F)c(F)c2)c2nnn([C@@H]3C[C@H](OCCO)[C@@H](O)[C@H]3O)c2n1` and report it.
0.00484

----------
Conditions: in ethanol, 283.15 K
measured-property: solubility (mole fraction)

Name the recorded solubility (mole fraction) for `CCCSc1nc(N[C@@H]2C[C@H]2c2ccc(F)c(F)c2)c2nnn([C@@H]3C[C@H](OCCO)[C@@H](O)[C@H]3O)c2n1` .
0.00503

----------
Details: in acetonitrile, 308.15 K
measured-property: solubility (mole fraction)
Reply with just the number.

Query (compound): `CCCSc1nc(N[C@@H]2C[C@H]2c2ccc(F)c(F)c2)c2nnn([C@@H]3C[C@H](OCCO)[C@@H](O)[C@H]3O)c2n1` ; field requested: solubility (mole fraction)
0.00359

----------
Conditions: in ethanol, 293.15 K
measured-property: solubility (mole fraction)
Simply state the number, no unit and no words.

// query solubility (mole fraction) value for entry `CCCSc1nc(N[C@@H]2C[C@H]2c2ccc(F)c(F)c2)c2nnn([C@@H]3C[C@H](OCCO)[C@@H](O)[C@H]3O)c2n1`
0.00747

----------
Conditions: in 2-butanone, 313.15 K
measured-property: solubility (mole fraction)
Write the number on its own, no unit after it.

What measured solubility (mole fraction) goes with `CCCSc1nc(N[C@@H]2C[C@H]2c2ccc(F)c(F)c2)c2nnn([C@@H]3C[C@H](OCCO)[C@@H](O)[C@H]3O)c2n1` ?
0.0776
